B1: library; a variant is named by its letters at N, in order (parent)
chain: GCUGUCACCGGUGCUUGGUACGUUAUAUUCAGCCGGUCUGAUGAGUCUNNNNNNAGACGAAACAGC

variants of: B1; experiment: normalized RNA/DNA level without ligand (relative to sTRSVctl = 100) (log10 (% of sTRSVctl)); HEK293T overexpressing SLC46A1; higher = less ribozyme self-cleavage, higher mRNA level; details: without (6R,S)-folinic acid; ligand present: no
Reported normalized RNA/DNA level without ligand (log10) values are given for each entry in this list.
Please reply with the number alone, leaving off any unit.

Inquiry: Return normalized RNA/DNA level without ligand (log10) (reported value) for this variant: `GCUGUCACCGGUGCUUGGUACGUUAUAUUCAGCCGGUCUGAUGAGUCUGGUAGAAGACGAAACAGC`
Reply text: 1.99

Inquiry: Return normalized RNA/DNA level without ligand (log10) (reported value) for this variant: `GCUGUCACCGGUGCUUGGUACGUUAUAUUCAGCCGGUCUGAUGAGUCUAUGUGUAGACGAAACAGC`
Reply text: 1.83

Inquiry: Return normalized RNA/DNA level without ligand (log10) (reported value) for this variant: `GCUGUCACCGGUGCUUGGUACGUUAUAUUCAGCCGGUCUGAUGAGUCUCCUGUUAGACGAAACAGC`
Reply text: 2.02

Inquiry: Return normalized RNA/DNA level without ligand (log10) (reported value) for this variant: `GCUGUCACCGGUGCUUGGUACGUUAUAUUCAGCCGGUCUGAUGAGUCUCACUUGAGACGAAACAGC`
Reply text: 2.03

Inquiry: Return normalized RNA/DNA level without ligand (log10) (reported value) for this variant: `GCUGUCACCGGUGCUUGGUACGUUAUAUUCAGCCGGUCUGAUGAGUCUGAGGAUAGACGAAACAGC`
Reply text: 1.96

Inquiry: Return normalized RNA/DNA level without ligand (log10) (reported value) for this variant: `GCUGUCACCGGUGCUUGGUACGUUAUAUUCAGCCGGUCUGAUGAGUCUUAAAAGAGACGAAACAGC`
Reply text: 1.76

Inquiry: Return normalized RNA/DNA level without ligand (log10) (reported value) for this variant: `GCUGUCACCGGUGCUUGGUACGUUAUAUUCAGCCGGUCUGAUGAGUCUGGGCCAAGACGAAACAGC`
Reply text: 2.13

Inquiry: Return normalized RNA/DNA level without ligand (log10) (reported value) for this variant: `GCUGUCACCGGUGCUUGGUACGUUAUAUUCAGCCGGUCUGAUGAGUCUGUACACAGACGAAACAGC`
Reply text: 1.98

Inquiry: Return normalized RNA/DNA level without ligand (log10) (reported value) for this variant: `GCUGUCACCGGUGCUUGGUACGUUAUAUUCAGCCGGUCUGAUGAGUCUGGCGGCAGACGAAACAGC`
Reply text: 2.01

Inquiry: Return normalized RNA/DNA level without ligand (log10) (reported value) for this variant: `GCUGUCACCGGUGCUUGGUACGUUAUAUUCAGCCGGUCUGAUGAGUCUUAUGAAAGACGAAACAGC`
Reply text: 1.87

More entries:
Inquiry: Return normalized RNA/DNA level without ligand (log10) (reported value) for this variant: `GCUGUCACCGGUGCUUGGUACGUUAUAUUCAGCCGGUCUGAUGAGUCUUAAUUGAGACGAAACAGC`
Reply text: 1.79
